Each recorded value in this set is attributed to patent US20240391948A1.

pIC50 reference
# Tested on: U937 cells (human monocytic cell line)
# protocol-description: BzATP-induced IL-1β secretion inhibition in PMA-differentiated U937 cells
# Format: cell-based
# condition-label: U-937, U937 cells differentiated with PMA, read-out: IL-1β production inhibition grade (IC50)
pIC50: −log10 of the molar value.

C[C@H](CCC(=O)N1CC[C@H](S(=O)(=O)O)C1)[C@H]1CC[C@H]2[C@@H]3CC[C@@H]4CC(=O)CC[C@]4(C)[C@H]3CC[C@]12C	7.00 to 7.30
C[C@H](CCC(=O)NC(C)(C)CS(=O)(=O)O)[C@H]1CC[C@H]2[C@@H]3CC[C@@H]4C[C@H](O)CC[C@]4(C)[C@H]3CC[C@]12C	> 7.30
C[C@H](CCC(=O)N[C@H](c1ccccc1)[C@H](C)S(=O)(=O)O)[C@H]1CC[C@H]2[C@@H]3CC[C@@H]4C[C@H](O)CC[C@]4(C)[C@H]3CC[C@]12C	> 7.30
CC[C@H]1[C@@H](O)[C@@H]2[C@H](C[C@H](O)[C@]3(C)[C@@H]([C@H](C)CCC(=O)NC4(CS(=O)(=O)O)CC4)CC[C@@H]23)[C@@]2(C)CC[C@@H](O)C[C@@H]12	7.00 to 7.30

Consider the additional molecule presented here.
In: Look up pIC50 with U937 cells (human monocytic cell line) for this molecule: CC[C@H]1[C@@H](O)[C@@H]2[C@H](C[C@H](O)[C@]3(C)[C@@H]([C@H](C)CCC(=O)NC(C)(C)CS(=O)(=O)O)CC[C@@H]23)[C@@]2(C)CC[C@@H](O)C[C@@H]12
Out: > 7.30
